src = patent US7230033B2

Please go through the items and note down their Slope.
System: X. cheopis adults
experiment description: Flea bioassay, treated 2-dram vials, probit analysis
Type: in vivo, Xenopsylla cheopis
condition label: 24 h exposure; probit

Known results for compounds:
{"columns": ["compound", "Slope"],
 "data": [
  ["C=C(C)[C@@H]1CCC2=CC(=O)C[C@@H](C)[C@]2(C)C1 [Compound 8, Nootkatone]", 2.949],
  ["C=C(C)[C@@H]1CCC2=CCC[C@@H](C)[C@]2(C)C1 [Compound 5, Valencene]", 6.925],
  ["Cc1ccc(C(C)C)cc1O [Compound 4, Carvacrol]", 3.413]
]}

Kindly give each listed record's Slope.
1. C=C(C)[C@@H]1CCC2=CC(=O)C[C@@H](C)[C@]2(C)C1 [Compound 9, Nootkatone]
2. C=C(C)[C@@H]1CCC2=C[C@@H](O)C[C@@H](C)[C@]2(C)C1 [Compound 12, Nootkatol]
3. C=C(CO)C1CCC2=CCC[C@@H](C)[C@]2(C)C1 (stereo partly shown) [Compound 10, 13-hydroxy-valencene]
4. C[C@@H]1CC(=O)C2OC23CCC(C2(C)CO2)C[C@@]13C (stereo partly shown) [Compound 18, nootkatone-1,10–11,12-diepoxide]

(A)
1: 2.9; 2: 2.101; 3: 3.143; 4: 1.455
